- Tested on: HPV-16
- experimental.protocol: qPCR sensitivity against HPV-HNSCC tumor samples diluted among 10 ng normal human DNA
- condition: tumor DNA dilution, fraction of 32 samples
assay.readout: Sensitivity, 100 cells
Give a plain numeric answer without units written out.

Value of Sensitivity, 100 cells reported for the molecule BR E6-1: HPV-16 E6 region (172-373 bp) primer/probe set, SEQ ID NO: 58-60 (nucleic acid, chemistry not given here) DNA 1: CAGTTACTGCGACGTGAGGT DNA 2: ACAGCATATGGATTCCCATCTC DNA 3: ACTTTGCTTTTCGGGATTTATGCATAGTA is 0.875

Others:
Value of Sensitivity, 100 cells reported for the molecule E6: previously designed (historical) HPV-16 E6 primers and Taqman probe, SEQ ID NO: 7-9, positive control (nucleic acid, Taqman probe, labels not given here) DNA 1: TCAGGACCCACAGGAGCG DNA 2: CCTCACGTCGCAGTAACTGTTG DNA 3: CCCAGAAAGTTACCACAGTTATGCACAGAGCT is 0.906
